Attribution: patent US20250115889A1

- experimental_target: the molecule itself
- assay_notes: native PAGE with and without DTT, self-association (multimer ladder)
observed_property: binding result

{"protein": "KDcAK1n-4S (other, also called chimera with all four Cysteine residues mutated to Serine) NTGVSFANYTAHGSETAWADPLLTTSQLKALTNKDKWGDNTGYQFLLDADHNTFGSVIPATGPLFTGTASSNLYSANFEYLIPANADPVVTTQNIIVTGQGEVVIPGGVYDYSITNPEPASGKMWIAGDGGNQPARYDDFTFEAGKKYTFTMRRAGMGDGTDMEVEDDSPASYTYTVYRDGTKIKEGLTATTFEEDGVAAGNHEYSVEVKYTAGVSPKVSKDVTVEGSNEFAPVQNLTGSSVGQKVTLKWDAPNGTPNPNPNPNPNPGTTLSESFENGIPASWKTIDADGDGHGWKPGNAPGIAGYNSNGSVYSESFGLGGIGVLTPDNYLITPALDLPNGG", "val": "binds"}
{"protein": "rABM21-2XCys > Ser (other) ASYTYTVYRDGTKIKEGLTATTFEEDGVAAGNHEYSVEVKYTAGVSPKVSKDVTVEGSNEFAPVQNLTGSSVGQKVTLKWDAPN", "val": "binds"}
{"protein": "KDcAK1n-4S-AVQP (other, also called KDcAKIn-4S-AVQP; KDcAK1n PVQN>AVQP/4 Cys>Ser variant) NTGVSFANYTAHGSETAWADPLLTTSQLKALTNKDKWGDNTGYQFLLDADHNTFGSVIPATGPLFTGTASSNLYSANFEYLIPANADPVVTTQNIIVTGQGEVVIPGGVYDYSITNPEPASGKMWIAGDGGNQPARYDDFTFEAGKKYTFTMRRAGMGDGTDMEVEDDSPASYTYTVYRDGTKIKEGLTATTFEEDGVAAGNHEYSVEVKYTAGVSPKVSKDVTVEGSNEFAAVQPLTGSSVGQKVTLKWDAPNGTPNPNPNPNPNPGTTLSESFENGIPASWKTIDADGDGHGWKPGNAPGIAGYNSNGSVYSESFGLGGIGVLTPDNYLITPALDLPNGG", "val": "no binding"}
{"protein": "rABM21-AVQP-2X Cys > Ser (other, also called ABM21-2S-AVQP) ASYTYTVYRDGTKIKEGLTATTFEEDGVAAGNHEYSVEVKYTAGVSPKVSKDVTVEGSNEFAAVQPLTGSSVGQKVTLKWDAPN", "val": "no binding"}
